Target: SF9 affinity purified rat FPT (Rattus norvegicus, UniProt Q02293+Q04631)
Assay: PFT (FPT) inhibitory activity assay, radiolabeled farnesyl pyrophosphate and biotinyl peptide, streptavidin beads
Conditions: HEPES buffer pH 7.4, 30° C., 30 minutes; read-out: FTase IC50
Provide the reported IC50 of each item.
Give a bare numeral; the unit nM is implied.

INPUT: Item C#CCNC(=O)c1ccccc1S(=O)(=O)Cc1c(O[C@H](Cn2ccnc2)c2ccccc2)ccc2c1CCCC2=O [Compound 216] has what recorded IC50?
OUTPUT: 0.4

INPUT: Item Cc1ccc(OCc2c(O[C@H](Cn3ccnc3)c3ccccc3)ccc3c2CCCC3=O)cc1 [Compound 100] has what recorded IC50?
OUTPUT: 4

INPUT: Item C#CCNC(=O)c1cccc(S(=O)(=O)Cc2c(O[C@H](Cn3ccnc3)c3ccccc3)ccc3c2CCCC3=O)c1 [Compound 215] has what recorded IC50?
OUTPUT: 0.2

INPUT: Item O=C1CCCc2c1ccc(O[C@H](Cn1ccnc1)c1ccccc1)c2CS(=O)(=O)c1ccccc1 [Compound 3] has what recorded IC50?
OUTPUT: 0.3

INPUT: Item O=C1CCCc2c1ccc(O[C@H](Cn1ccnc1)c1ccccc1)c2CCc1cncc2ccccc12 [Compound 26c] has what recorded IC50?
OUTPUT: 0.2

INPUT: Item CC[C@H](CO)NC(=O)c1ccc(SCc2c(O[C@H](Cn3ccnc3)c3ccccc3)ccc3c2CCCC3=O)cc1 [Compound 245] has what recorded IC50?
OUTPUT: 0.2

INPUT: Item C[C@H](O)CNC(=O)c1ccc(S(=O)(=O)Cc2c(O[C@H](Cn3ccnc3)c3ccccc3)ccc3c2CCCC3=O)cc1 [Compound 199] has what recorded IC50?
OUTPUT: 0.4

INPUT: Item CNC(=O)c1ccccc1SCc1c(O[C@H](Cn2ccnc2)c2ccccc2)ccc2c1CCCC2=O [Compound 193] has what recorded IC50?
OUTPUT: 5

INPUT: Item O=C1CCCc2c1ccc(O[C@H](Cn1ccnc1)c1ccccc1)c2COc1ccc2c(c1)OCO2 [Compound 93] has what recorded IC50?
OUTPUT: 3

INPUT: Item O=C(NCc1c(O[C@H](Cn2ccnc2)c2ccccc2)ccc2c1CCCC2=O)c1ccccn1 [Compound 42h] has what recorded IC50?
OUTPUT: 8

INPUT: Item CCCc1c(OC(Cn2ccnc2)c2ccccc2)ccc2c1CCCC2=O (stereo not drawn) [Compound 50] has what recorded IC50?
OUTPUT: 8

INPUT: Item O=C(Nc1c(O[C@H](Cn2ccnc2)c2ccccc2)ccc2c1CCCC2=O)c1cnccn1 [Compound 40c] has what recorded IC50?
OUTPUT: 1.2

INPUT: Item O=C(O)c1cccnc1SCc1c(O[C@H](Cn2ccnc2)c2ccccc2)ccc2c1CCCC2=O [Compound 126] has what recorded IC50?
OUTPUT: 19

INPUT: Item COC(=O)CSCc1c(O[C@H](Cn2ccnc2)c2ccccc2)ccc2c1CCCC2=O [Compound 10b] has what recorded IC50?
OUTPUT: 2.5

INPUT: Item C=CCc1c(OC(Cn2ccnc2)c2c(Cl)cccc2Cl)ccc2c1CCCC2=O (racemic) [Compound 60] has what recorded IC50?
OUTPUT: 29

INPUT: Item O=C(NC1CCCC1)c1cccc(S(=O)(=O)Cc2c(O[C@H](Cn3ccnc3)c3ccccc3)ccc3c2CCCC3=O)c1 [Compound 218] has what recorded IC50?
OUTPUT: 0.2

INPUT: Item CCCOCc1c(O[C@H](Cn2ccnc2)c2ccccc2)ccc2c1CCCC2=O [Compound 19b] has what recorded IC50?
OUTPUT: 3.6

INPUT: Item CC[C@H](C)CNC(=O)c1ccc(S(=O)(=O)Cc2c(O[C@H](Cn3ccnc3)c3ccccc3)ccc3c2CCCC3=O)cc1 [Compound 247] has what recorded IC50?
OUTPUT: 0.2

INPUT: Item C=CCc1c(O[C@H](Cn2ccnc2)c2ccccc2)ccc2c1CCC2=O [Compound 56] has what recorded IC50?
OUTPUT: 15

INPUT: Item C[C@@H](O)CNC(=O)c1ccccc1S(=O)(=O)Cc1c(O[C@H](Cn2ccnc2)c2ccccc2)ccc2c1CCCC2=O [Compound 202] has what recorded IC50?
OUTPUT: 0.2

INPUT: Item O=C1CCCc2c1ccc(O[C@H](Cn1ccnc1)c1ccccc1)c2Oc1ccccc1 [Compound 46] has what recorded IC50?
OUTPUT: 37

INPUT: Item O=C1CCCc2c1ccc(O[C@H](Cn1ccnc1)c1ccccc1)c2COc1ccccc1F [Compound 101] has what recorded IC50?
OUTPUT: 3

INPUT: Item O=C1CCCc2c1ccc(OC(Cn1ccnc1)c1cccs1)c2CS(=O)(=O)c1ccccn1 (stereo not drawn) [Compound 63p] has what recorded IC50?
OUTPUT: 0.55

INPUT: Item CC[C@H](C)CNC(=O)c1ccccc1S(=O)(=O)Cc1c(O[C@H](Cn2ccnc2)c2ccccc2)ccc2c1CCCC2=O [Compound 249] has what recorded IC50?
OUTPUT: 0.25

INPUT: Item O=C(NC1CC1)c1cccc(S(=O)(=O)Cc2c(O[C@H](Cn3ccnc3)c3ccccc3)ccc3c2CCCC3=O)c1 [Compound 224] has what recorded IC50?
OUTPUT: 0.2

INPUT: Item O=C1CCCc2c1ccc(O[C@H](Cn1ccnc1)c1ccccc1)c2COc1cccc2[nH]ccc12 [Compound 76] has what recorded IC50?
OUTPUT: 1

INPUT: Item O=C(O)CCNC(=O)c1cccc(SCc2c(O[C@H](Cn3ccnc3)c3ccccc3)ccc3c2CCCC3=O)c1 [Compound 171] has what recorded IC50?
OUTPUT: 6

INPUT: Item O=C(O)c1cccc(SCc2c(O[C@H](Cn3ccnc3)c3ccccc3)ccc3c2CCCC3=O)c1 [Compound 163] has what recorded IC50?
OUTPUT: 5

INPUT: Item C=CCNC(=O)c1ccccc1SCc1c(O[C@H](Cn2ccnc2)c2ccccc2)ccc2c1CCCC2=O [Compound 208] has what recorded IC50?
OUTPUT: 0.2

INPUT: Item C=CCc1c(O[C@H](Cn2ccnc2)c2ccccc2)ccc2c1CCCC2=O [Compound 51] has what recorded IC50?
OUTPUT: 3

* * *

Biological target: SF9 affinity purified rat FPT (Rattus norvegicus, UniProt Q02293+Q04631)
Experiment: PFT (FPT) inhibitory activity assay, radiolabeled farnesyl pyrophosphate and biotinyl peptide, streptavidin beads
Settings: HEPES buffer pH 7.4, 30° C., 30 minutes; read-out: FTase IC50
Experimental: The PFT or FPT inhibitory activity of compounds of the present invention were assayed in HEPES buffer (pH 7.4) containing 5 mM potassium phosphate and 20 μM ZnCl2. The solution also contained 5 mM DTT (dithiothreitol), 5 mM MgCl2, and 0.1% PEG 8000. Assays were performed in 96 well plates (Wallec) and employed solutions composed of varying concentrations of a compound of the present invention in 10% DMSO (dimethylsulfoxide). […]
test-readout: pIC50
Kindly note that pIC50 refers to -log10 of the concentration in mol/L and answer with the value alone.

INPUT: Item CC(O)CNC(=O)c1cccc(SCc2c(O[C@H](Cn3ccnc3)c3ccccc3)ccc3c2CCCC3=O)c1 (stereo partly shown) has what recorded pIC50?
OUTPUT: 9.70

INPUT: Item O=C(Nc1c(O[C@H](Cn2ccnc2)c2ccccc2)ccc2c1CCCC2=O)c1cccnc1Cl [Compound 40e] has what recorded pIC50?
OUTPUT: 8.60

INPUT: Item `C=CCOCc1c(O[C@H](Cn2ccnc2)c2ccccc2)ccc2c1CCCC2=O` has what recorded pIC50?
OUTPUT: 8.10

INPUT: Item `O=C(O)CCNC(=O)c1ccccc1S(=O)(=O)Cc1c(O[C@H](Cn2ccnc2)c2ccccc2)ccc2c1CCCC2=O` has what recorded pIC50?
OUTPUT: 8.15

INPUT: Item `COCCNC(=O)c1cccc(SCc2c(O[C@H](Cn3ccnc3)c3ccccc3)ccc3c2CCCC3=O)c1` has what recorded pIC50?
OUTPUT: 9.70

INPUT: Item `O=C(O)CCc1c(O[C@H](Cn2ccnc2)c2ccccc2)ccc2c1CCCC2=O` has what recorded pIC50?
OUTPUT: 7.60

INPUT: Item `O=C1CCCc2c1ccc(O[C@H](Cn1ccnc1)c1ccccc1)c2COc1ccc2c(c1)CCCC2` has what recorded pIC50?
OUTPUT: 8.70

INPUT: Item `O=C(Nc1c(O[C@H](Cn2ccnc2)c2ccccc2)ccc2c1CCCC2=O)c1ccccn1` has what recorded pIC50?
OUTPUT: 8.14

INPUT: Item `O=C1CCCc2c1ccc(O[C@H](Cn1ccnc1)c1ccccc1)c2-c1cccc(Cl)c1` has what recorded pIC50?
OUTPUT: 7.59

INPUT: Item `O=C1CCCc2c1ccc(O[C@H](Cn1ccnc1)c1ccccc1)c2-c1ccc2c(c1)OCO2` has what recorded pIC50?
OUTPUT: 8.10

INPUT: Item `O=C1CCCc2c1ccc(O[C@H](Cn1ccnc1)c1ccccc1)c2NS(=O)(=O)Cc1ccccc1` has what recorded pIC50?
OUTPUT: 9.00

INPUT: Item `C[C@@H](O)CNC(=O)c1ccccc1SCc1c(O[C@H](Cn2ccnc2)c2ccccc2)ccc2c1CCCC2=O` has what recorded pIC50?
OUTPUT: 9.70

INPUT: Item `O=C(O)CCNC(=O)c1cccc(S(=O)(=O)Cc2c(O[C@H](Cn3ccnc3)c3ccccc3)ccc3c2CCCC3=O)c1` has what recorded pIC50?
OUTPUT: 8.00

INPUT: Item `O=C1CCCc2c1ccc(O[C@H](Cn1ccnc1)c1ccccc1)c2-c1ccoc1` has what recorded pIC50?
OUTPUT: 8.15

INPUT: Item Nc1nccn1CC(Oc1ccc2c(c1CCc1ccccc1)CCCC2=O)c1ccccc1 (stereo not shown) [Compound 63r] has what recorded pIC50?
OUTPUT: 7.46

INPUT: Item `CNC(=O)c1ccc(SCc2c(O[C@H](Cn3ccnc3)c3ccccc3)ccc3c2CCCC3=O)cc1` has what recorded pIC50?
OUTPUT: 8.70

INPUT: Item O=C1CCCc2c1ccc(OC(Cn1ccnc1)c1nccs1)c2CS(=O)(=O)c1ccccn1 (stereo not shown) [Compound 63q] has what recorded pIC50?
OUTPUT: 9.30

INPUT: Item `O=C1CCCc2c1ccc(O[C@H](Cn1ccnc1)c1ccccc1)c2COc1cccc(Cl)c1` has what recorded pIC50?
OUTPUT: 9.15

INPUT: Item O=C1CCCc2c1ccc(O[C@H](Cn1ccnc1)c1cccnc1)c2CCc1ccccn1 [Compound 63c] has what recorded pIC50?
OUTPUT: 9.52

INPUT: Item `O=C1CCCc2c1ccc(O[C@H](Cn1ccnc1)c1ccccc1)c2COc1cccc2ccccc12` has what recorded pIC50?
OUTPUT: 8.30

INPUT: Item `COC(=O)c1ccc(SCc2c(O[C@H](Cn3ccnc3)c3ccccc3)ccc3c2CCCC3=O)cc1` has what recorded pIC50?
OUTPUT: 8.40

INPUT: Item `COc1cc(OC)cc(OCc2c(O[C@H](Cn3ccnc3)c3ccccc3)ccc3c2CCCC3=O)c1` has what recorded pIC50?
OUTPUT: 8.40

INPUT: Item `O=C(NC1CC1)c1ccccc1S(=O)(=O)Cc1c(O[C@H](Cn2ccnc2)c2ccccc2)ccc2c1CCCC2=O` has what recorded pIC50?
OUTPUT: 9.70

INPUT: Item `CN(C)CCNC(=O)c1cccc(S(=O)(=O)Cc2c(O[C@H](Cn3ccnc3)c3ccccc3)ccc3c2CCCC3=O)c1` has what recorded pIC50?
OUTPUT: 8.00

INPUT: Item `CC(C)S(=O)(=O)Cc1c(O[C@H](Cn2ccnc2)c2ccccc2)ccc2c1CCCC2=O` has what recorded pIC50?
OUTPUT: 8.22

INPUT: Item `Cc1cccc(OCc2c(O[C@H](Cn3ccnc3)c3ccccc3)ccc3c2CCCC3=O)c1` has what recorded pIC50?
OUTPUT: 8.30

INPUT: Item `CC(C)c1cccc(OCc2c(O[C@H](Cn3ccnc3)c3ccccc3)ccc3c2CCCC3=O)c1` has what recorded pIC50?
OUTPUT: 8.52

INPUT: Item CCC(C)OCc1c(O[C@H](Cn2ccnc2)c2ccccc2)ccc2c1CCCC2=O (mixture of isomers) [Compound 19d] has what recorded pIC50?
OUTPUT: 8.72

INPUT: Item O=C1CCCc2c1ccc(O[C@H](Cn1ccnc1)c1ccccc1)c2CCc1cc[n+]([O-])cc1 [Compound 26a] has what recorded pIC50?
OUTPUT: 8.30

INPUT: Item `O=C1CCCc2c1ccc(O[C@H](Cn1ccnc1)c1ccccc1)c2CN1C(=O)c2ccccc2C1=O` has what recorded pIC50?
OUTPUT: 8.77

INPUT: Item `CNC(=O)c1cccc(S(=O)(=O)Cc2c(O[C@H](Cn3ccnc3)c3ccccc3)ccc3c2CCCC3=O)c1` has what recorded pIC50?
OUTPUT: 8.10

Each recorded value in this set is attributed to patent US6943183B2.
